assay: Acute toxicity, rats; details: rat, in vivo, po, male, observed 7 days
endpoint: LD50 at 168 h (mg/kg)
The figure you give is taken to be in mg/kg; do not add the unit.

INPUT: Provide measured LD50 at 168 h value, entry: Cc1ccc2c(c1)C1CN(CCCC(=O)c3ccc(F)cc3)CCC1N2.Cl.Cl (stereo not shown)
OUTPUT: 812

* * *

test: Acute toxicity, mice; settings: mouse, in vivo, po, female, observed 4 days;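 further: LD50 expressed in mg/kg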
endpoint: LD50 at 96 h (mg/kg)
The figure you give is taken to be in mg/kg; do not add the unit.

INPUT: Provide measured LD50 at 96 h value, entry: CN1CCN(C2=Nc3cc(Cl)ccc3Nc3ccccc32)CC1 [Clozapine]
OUTPUT: 212

* * *

test: Acute toxicity, rats; conditions: rat, in vivo, sc, male, observed 7 days
endpoint: LD50 at 168 h (mg/kg)
The figure you give is taken to be in mg/kg; do not add the unit.

INPUT: Provide measured LD50 at 168 h value, entry: Cc1ccc2c(c1)C1CN(CCCC(=O)c3ccc(F)cc3)CCC1N2.Cl.Cl (stereo not shown)
OUTPUT: 592

* * *

test: Acute toxicity, mice; settings: mouse, in vivo, ip, female, observed 7 days;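 further: LD50 expressed in mg/kg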
endpoint: LD50 at 168 h (mg/kg)
The figure you give is taken to be in mg/kg; do not add the unit.

INPUT: Provide measured LD50 at 168 h value, entry: Cc1ccc2c(c1)C1CN(CCCC(=O)c3ccc(F)cc3)CCC1N2.Cl.Cl (stereo not shown)
OUTPUT: 95

* * *

assay: Acute toxicity, mice; details: mouse, in vivo, po, female, observed 7 days;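 further: LD50 expressed in mg/kg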
endpoint: LD50 at 168 h (mg/kg)
The figure you give is taken to be in mg/kg; do not add the unit.

INPUT: Provide measured LD50 at 168 h value, entry: Cc1ccc2c(c1)C1CN(CCCC(=O)c3ccc(F)cc3)CCC1N2.Cl.Cl (stereo not shown)
OUTPUT: 339

* * *

test system: methamphetamine-induced stereotypy; assay: Potentiation of methamphetamine-induced stereotypy; type: in vivo, male Wistar HLA rats; parameters: key: ---: Marked antagonism; --: Moderate antagonism; -: Slight antagonism; 0: No interaction; +: Slight potentiation; ++: Moderate potentiation; +++: Marked potentiation; details: 10.0 mg/kg i.p.; methamphetamine 2 mg/kg i.p.
endpoint: Stereotypy Termination

CN(C)CCCN1c2ccccc2Sc2ccc(Cl)cc21; ---
Cc1ccc2c(c1)C1CN(CCCC(=O)c3ccc(F)cc3)CCC1N2C.Cl.Cl (stereo not shown); +++
Cl.Cl.O=C(CCCN1CCC2Nc3ccccc3C2C1)c1ccc(F)cc1 (stereo not shown); 0
CCc1ccc2c(c1)C1CN(CCCC(=O)c3ccc(F)cc3)CCC1N2.Cl.Cl (stereo not shown); +++
Cc1ccc2c(c1)C1CN(C)CCC1N2 (stereo not shown); +++
CCN1c2ccc(C)cc2C2CN(CCCC(=O)c3ccc(F)cc3)CCC21.Cl.Cl (stereo not shown); +++
COc1ccc2c(c1)C1CN(CCCC(=O)c3ccc(F)cc3)CCC1N2.Cl.Cl (stereo not shown); 0
Cl.Cl.O=C(CCCN1CCC2Nc3ccc(F)cc3C2C1)c1ccc(F)cc1 (stereo not shown); --
Cc1ccc2[nH]c3c(c2c1)CN(CCCC(=O)c1ccc(F)cc1)CC3.Cl; 0

INPUT: Send back methamphetamine-induced stereotypy Stereotypy Termination of Cc1ccc2c(c1)C1CN(CCCC(=O)c3ccc(F)cc3)CCC1N2.Cl.Cl (stereo not shown) only.
OUTPUT: +++

* * *

tested on: methamphetamine-induced stereotypy; assay: Potentiation of methamphetamine-induced stereotypy; type: in vivo, male Wistar HLA rats; set-up: key: ---: Marked antagonism; --: Moderate antagonism; -: Slight antagonism; 0: No interaction; +: Slight potentiation; ++: Moderate potentiation; +++: Marked potentiation; details: 2.0 mg/kg i.p.; methamphetamine 2 mg/kg i.p.
Recorded measurements of Stereotypy Intensity, one per entry
I'd appreciate a reply containing only the number, no unit.

Use these answered entries as a reference point.
COc1ccc2c(c1)C1CN(CCCC(=O)c3ccc(F)cc3)CCC1N2.Cl.Cl (centres unmarked) [compound 4]; 0
Cc1ccc2[nH]c3c(c2c1)CN(CCCC(=O)c1ccc(F)cc1)CC3.Cl [compound 1]; 0

Now for another entry.
INPUT: Provide measured Stereotypy Intensity value, entry: Cl.Cl.O=C(CCCN1CCC2Nc3ccc(F)cc3C2C1)c1ccc(F)cc1 (centres unmarked) [compound 3]
OUTPUT: 0

* * *

assay: Acute toxicity, mice; details: mouse, in vivo, sc, male, observed 4 days;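 further: LD50 expressed in mg/kg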
endpoint: LD50 at 96 h (mg/kg)
The figure you give is taken to be in mg/kg; do not add the unit.

INPUT: Provide measured LD50 at 96 h value, entry: CN1CCN(C2=Nc3cc(Cl)ccc3Nc3ccccc32)CC1
OUTPUT: 194

* * *

experiment: Acute toxicity, mice; details: mouse, in vivo, iv, male, observed 7 days;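 further: LD50 expressed in mg/kg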
Recorded measurements of LD50 at 168 h, one per entry
The figure you give is taken to be in mg/kg; do not add the unit.

Cc1ccc2c(c1)C1CN(C)CCC1N2 (centres unmarked) [Dicarbine]; 79

Now for another entry.
INPUT: Provide measured LD50 at 168 h value, entry: Cc1ccc2c(c1)C1CN(CCCC(=O)c3ccc(F)cc3)CCC1N2.Cl.Cl (centres unmarked) [Compound A]
OUTPUT: 59

* * *

experiment: Acute toxicity, mice; details: mouse, in vivo, po, male, observed 7 days;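 further: LD50 expressed in mg/kg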
Recorded measurements of LD50 at 168 h, one per entry

Use these answered entries as a reference point.
Cc1ccc2c(c1)C1CN(CCCC(=O)c3ccc(F)cc3)CCC1N2.Cl.Cl (stereo not drawn) [Compound A]; 589 mg/kg
CN(C)CCCN1c2ccccc2Sc2ccc(Cl)cc21 [Chlorpromazine]; 476 mg/kg

INPUT: Provide measured LD50 at 168 h value, entry: Cc1ccc2c(c1)C1CN(C)CCC1N2 (stereo not drawn) [Dicarbine]
OUTPUT: 357 mg/kg

* * *

test: Acute toxicity, rats; details: rat, in vivo, sc, male, observed 4 days
endpoint: LD50 at 96 h

INPUT: Provide measured LD50 at 96 h value, entry: CN1CCN(C2=Nc3cc(Cl)ccc3Nc3ccccc32)CC1
OUTPUT: 272 mg/kg

* * *

assay: Acute toxicity, mice; conditions: mouse, in vivo, iv, male, observed 4 days;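 further: LD50 expressed in mg/kg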
endpoint: LD50 at 96 h (mg/kg)
The figure you give is taken to be in mg/kg; do not add the unit.

INPUT: Provide measured LD50 at 96 h value, entry: CN1CCN(C2=Nc3cc(Cl)ccc3Nc3ccccc32)CC1 [Clozapine]
OUTPUT: 37

* * *

test: Acute toxicity, rats; details: rat, in vivo, iv, male, observed 7 days
endpoint: LD50 at 168 h (mg/kg)
The figure you give is taken to be in mg/kg; do not add the unit.

INPUT: Provide measured LD50 at 168 h value, entry: Cc1ccc2c(c1)C1CN(CCCC(=O)c3ccc(F)cc3)CCC1N2.Cl.Cl (stereo not shown)
OUTPUT: 51

* * *

assay: Acute toxicity, rats; settings: rat, in vivo, iv, male, observed 4 days
endpoint: LD50 at 96 h (mg/kg)
The figure you give is taken to be in mg/kg; do not add the unit.

INPUT: Provide measured LD50 at 96 h value, entry: CN1CCN(C2=Nc3cc(Cl)ccc3Nc3ccccc32)CC1 [Clozapine]
OUTPUT: 42

* * *

experiment: Acute toxicity, mice; conditions: mouse, in vivo, ip, male, observed 7 days;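 further: LD50 expressed in mg/kg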
endpoint: LD50 at 168 h (mg/kg)
The figure you give is taken to be in mg/kg; do not add the unit.

Cc1ccc2c(c1)C1CN(CCCC(=O)c3ccc(F)cc3)CCC1N2.Cl.Cl (centres unmarked); 134

Now for another entry.
INPUT: Provide measured LD50 at 168 h value, entry: Cc1ccc2c(c1)C1CN(C)CCC1N2 (centres unmarked)
OUTPUT: 153

* * *

experiment: Acute toxicity, rats; settings: rat, in vivo, ip, male, observed 7 days
endpoint: LD50 at 168 h

INPUT: Provide measured LD50 at 168 h value, entry: Cc1ccc2c(c1)C1CN(CCCC(=O)c3ccc(F)cc3)CCC1N2.Cl.Cl (stereo not shown) [Compound A]
OUTPUT: 146 mg/kg
